tested on: Escherichia coli TOP10; assay: shrunken log2 fold change of peptide-encoding DNA abundance (4.5 h post-induction vs induction); higher = less antimicrobial activity (less host growth inhibition); conditions: time post-induction: 4.5 h; library: site-saturation at positions 5, 18, 19, 20;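 further: peptides expressed intracellularly from a pBAD plasmid library in pooled LB shake-flask culture, induced with 0.3% L-arabinose, DNA abundance read by NGS, three biological replicates, DESeq2 with apeglm shrinkage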
# shrunken log2 fold change >= -0.04 gives Satisfied, anything below gives Not satisfied

Before answering, review these 10 worked examples.
SEQUENCE STRING: RRIRKRPPRLPRPRPRPCFYPRP
CLASS ASSIGNMENT: Not satisfied
//
SEQUENCE STRING: RRIRIRPPRLPRPRPRPLVMPRP
CLASS ASSIGNMENT: Not satisfied
//
SEQUENCE STRING: RRIRIRPPRLPRPRPRPQNEPRP
CLASS ASSIGNMENT: Not satisfied
//
SEQUENCE STRING: RRIRRRPPRLPRPRPRPPCPPRP
CLASS ASSIGNMENT: Satisfied
//
SEQUENCE STRING: RRIRYRPPRLPRPRPRPYFQPRP
CLASS ASSIGNMENT: Not satisfied
//
SEQUENCE STRING: RRIRSRPPRLPRPRPRPPIHPRP
CLASS ASSIGNMENT: Not satisfied
//
SEQUENCE STRING: RRIRCRPPRLPRPRPRPINRPRP
CLASS ASSIGNMENT: Satisfied
//
SEQUENCE STRING: RRIRHRPPRLPRPRPRPTHFPRP
CLASS ASSIGNMENT: Satisfied
//
SEQUENCE STRING: RRIRMRPPRLPRPRPRPVRIPRP
CLASS ASSIGNMENT: Satisfied
//
SEQUENCE STRING: RRIRFRPPRLPRPRPRPDMLPRP
CLASS ASSIGNMENT: Not satisfied

Q: Is reported shrunken log2 fold change greater than or equal to -0.04 here: RRIRQRPPRLPRPRPRPCGIPRP
Ans: Not satisfied

Q: hey, is shrunken log2 fold change for this one >= -0.04? RRIRVRPPRLPRPRPRPVCAPRP
Ans: Satisfied

Q: Confirm if shrunken log2 fold change reported for the sequence RRIRHRPPRLPRPRPRPKCPPRP is -0.04 or above.
Ans: Not satisfied

Q: Can RRIRWRPPRLPRPRPRPFEAPRP be said to have shrunken log2 fold change at or above -0.04?
Ans: Satisfied

Q: Dear colleague, could you confirm whether RRIRDRPPRLPRPRPRPTKEPRP has shrunken log2 fold change at or above -0.04?
Ans: Not satisfied

Q: Textbook exercise: given the entry RRIRARPPRLPRPRPRPTLKPRP , state whether its shrunken log2 fold change is greater than or equal to -0.04.
Ans: Satisfied

Q: Assess whether reported shrunken log2 fold change for RRIRKRPPRLPRPRPRPVWEPRP sits at -0.04 or higher.
Ans: Satisfied

Q: Is it the case that RRIRHRPPRLPRPRPRPGGFPRP has shrunken log2 fold change reaching or exceeding -0.04?
Ans: Not satisfied

Q: Does shrunken log2 fold change meet or surpass -0.04 for RRIRERPPRLPRPRPRPYNRPRP ?
Ans: Not satisfied

Q: Kindly determine if shrunken log2 fold change recorded for RRIRYRPPRLPRPRPRPRELPRP is above or exactly -0.04.
Ans: Not satisfied

Q: # bool: shrunken log2 fold change of RRIRTRPPRLPRPRPRPEYNPRP >= -0.04
Ans: Not satisfied

Q: Quick check, shrunken log2 fold change >= -0.04? RRIRPRPPRLPRPRPRPNTVPRP
Ans: Not satisfied

Q: Textbook exercise: given the entry RRIRSRPPRLPRPRPRPKQEPRP , state whether its shrunken log2 fold change is greater than or equal to -0.04.
Ans: Satisfied

Q: Would you say RRIRGRPPRLPRPRPRPAGSPRP shows shrunken log2 fold change at minimum -0.04?
Ans: Satisfied

Q: Identify whether the reported shrunken log2 fold change of the following sequence is -0.04 or greater: RRIRVRPPRLPRPRPRPIPSPRP
Ans: Not satisfied

Q: Does the sequence RRIRGRPPRLPRPRPRPGITPRP have recorded shrunken log2 fold change that is -0.04 or more?
Ans: Satisfied

Q: Is it the case that RRIRVRPPRLPRPRPRPNNRPRP has shrunken log2 fold change reaching or exceeding -0.04?
Ans: Not satisfied

Where do these numbers come from? They come from the supplement of paper PMC9112550.
